Reference for the values: the Biogen ADME set (Fang et al. 2023)

# log10(intrinsic clearance, human liver microsomes) annotations
A difference of one corresponds to tenfold intrinsic clearance, human liver microsomes; all values are log10 with intrinsic clearance, human liver microsomes in mL/min/kg.

O=C(C(c1ccccc1)c1ccccc1)N1CCOCC(Cc2ccc3cnccc3c2)C1 (stereo unspecified) | 2.61

Query: Name the reported log10(intrinsic clearance, human liver microsomes) value associated with the compound c1ccc(-c2nsc(N3CCCN(c4nccs4)CC3)n2)cc1
Reply: 2.16

Query: Give the measured log10(intrinsic clearance, human liver microsomes) of COc1cc(F)c(NCC(=O)Nc2ccc(C)cc2)cc1OC .
Reply: 1.50

Query: Suppose we examine the compound N#Cc1cccc(CN2CCN(CCO)CC2)c1 ; what log10(intrinsic clearance, human liver microsomes) value has been reported?
Reply: 0.80

Query: Which log10(intrinsic clearance, human liver microsomes) is listed for O=C(CSCCc1ccncc1)Nc1ccccc1 ?
Reply: 1.29

Query: Need log10(intrinsic clearance, human liver microsomes), item Cc1cc(C)c(NC(=O)c2cc(Cl)ccc2F)c(C)n1
Reply: 0.91
